Data provenance: the supplement of paper PMC7125110

B1: glmS ribozyme (parent)
chain: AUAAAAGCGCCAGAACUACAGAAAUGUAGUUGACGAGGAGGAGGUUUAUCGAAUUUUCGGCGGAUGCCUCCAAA

- Variants of: B1
- MEASUREMENT PROTOCOL: self-cleavage kobs at 160 uM GlcN6P; higher = faster cleavage; RNA array
- STUDY CONDITIONS: with glucosamine-6-phosphate
This sample holds only a part of the variants without activity.

MONOMER SEQUENCE	UNIT DESCRIPTOR	QUALIFIER SIGN	self-cleavage kobs at 160 uM GlcN6P
AUAAAAGCGCCAGCACUACAGAAAUGUAGUUGACGAGGAGGAGGUUUAUCGAAUUUUCGUCGGAUGCCUCCAAA	s⁻¹	<	1e-05
AUAAAAGGGCCAGAACUACAGAAAUGUAGUUGAAGAGGAGGAGGUUUAUCGACUUUUCGCCGGAUGCCUCCAAA	s⁻¹	<	1e-05
AUAAAAGCGCCAGAACUACAGAAAUGUAGUUGACGAGGUCGAGGUCUAUCGAAUUUUCGGCGGAUGCCUCCAAA	s⁻¹	=	5.92e-05
AUAAAAGCGCCAGAGCUACAGAAAUGUAGUUGACGAGGAGGAGGUUUAUCGAAUUUUAGGCGGAUGCCUUCAAA	s⁻¹	=	0.000138
AUAAAAGCGCCAGAACUACAGAAAUGUAGUUGACGAGGAGGAGGUUUAUCGAAUUUUCGGCGGAUGCCCCCAAA	s⁻¹	=	0.00145
AUAAAAGCGCCAGCACUACAGAAAUGUAGUUGACGAGGAGGCGGUUUAUCGAAUUUUCGGCGGAUGCCUGCAAA	s⁻¹	<	1e-05
AUAAAAGAGCCAGAACUACAGAAAUGUAGUUGACGAGGAGGAGGUUUAUCGAAUUUUCGACGGAUGCAUCCAAA	s⁻¹	<	1e-05
AUAAAAGCGCCAGUACUACAGAAAUGUAGUUGACGAGGAGGAGGUUUAUGGAAUUUUCGGCGGAUGCCUCCAAA	s⁻¹	=	0.000164
AUAAAAGCGCCAGUACUACAGAAAUGUAGUUGACGAGGAGGAGGUUUAUCGAAUGUUCGGCGGAUGCCUCCAAA	s⁻¹	=	0.000508
AUAAAAGCGCCAGAACUACAGAAAUGUAGUUGACGAGGAGGAGGUUUAUCGACUUGUCGGCGGAUGCCUCCAAA	s⁻¹	=	0.000166
AUAAAAGCGCUAGAACUACAGAAAUGUAUUUGACGAGGAAGAGGUUUAUCGAAUUUUCGGCGGAUGCCUCCAAA	s⁻¹	<	1e-05
AUAAAAGCGCCAGAACUACAGAAAUGUAGUUGGCGAGGAGGAGGUUUAUCGAAUUUUCGGCGGAGGCCUCCAAA	s⁻¹	<	1e-05
AUAAAAGUGCCAGAACUACAGAAAUGUAGUGGACGAGGAGGAGUUUUAUCGAAUUUUCGGCGGAUGCCUCGAAA	s⁻¹	<	1e-05
AUAAAAGCGCCAGAAUUACAGAAAUGUAGGUGACGAGGAGGAGGUUUAUCGAAUUUUCGGCGGAUGCCUCCAAA	s⁻¹	=	6.14e-05
AUAAAAGCGCCAGAGCUACAGAAAUGUAGUUGACGAGGAGGAGUUUUAUCGAAUUUUCGGCGGAUGCCUCCAAA	s⁻¹	=	3.52e-05
AUAAAAGCGCCAGAACUACAGAAAUGUAGUUGACGAGGCGGAGGUUUAUCGAAUUUUCGCCGGAUGCUUCCAAA	s⁻¹	<	1e-05
AUAAAAGCGCCAGAACUACAGAAAUGUAGUUGACGAGGAGGGGGUUUAUCGACUUUUCGGCGGAUGCCUCCAAA	s⁻¹	=	0.000666
AUAAAAGCACCAGAACUACAGAAAUGUAGUUGACGAGGAGGAGGUUUAUUUUAUUUUCGGCGGAUGCCUCCAAA	s⁻¹	<	1e-05
AUAAAACCGCCAGAAUUACAGAAAUGUAGUUGACGAGGAGGAGUUUUAUCGAAUUUUCGGCGGAUGCCUCCAAA	s⁻¹	<	1e-05
AUAAAAGCGCCAGAGCUACAGAAAUGUAGUUGACGAGGAGGAGAUUUAUCGAAUUUUCGGCGGAUGCCUCCAAA	s⁻¹	=	2.81e-05
AUAAAAGCGCCAGAACUACAGAAAUGUAGUUGACGAAGAGGAGGUUCAUCGAAUUUUCGGCGGAUGCCUCCAAA	s⁻¹	=	8.31e-05
AUAAAAGCGCCAGAACUACAGAAAUGUAGUUGACGAGGAGAAGGUAUAUCGAAUUUUCGGCGGAUGCCUCCAAA	s⁻¹	=	4.5e-05
AUAAAAGCGUCAGAACUACAGAAAUGUAGUUGACGAGGAGGAGGUUUAGCGAAUUUUCGGCGGAUGCCUCCAAA	s⁻¹	<	1e-05
AUAAAAGCGCCAGUACUACAGAAAUGUAGUUGACGAGGAGGAGGUUUAACGAAUUUUCGGCGGAUGCCUCCAAA	s⁻¹	<	1e-05
AUAAAAGCGCCAGAACUACAGAAAUGUAGUUGAAGAGGAGGAGGUUUAUCGAAUUUUCGGCAGAUGCCUCCAAA	s⁻¹	<	1e-05
AUAAAAGCGCCGGAACUACAGAAAUGUAGUUGACGAGGAGGAGGUUCAUCGAAUUUUCGGCGGAUGCCUCCAAA	s⁻¹	=	3.52e-05
AUAAAAGGGCCAGAACUACAGAAAUGUAGUUGACGAGGAGGAGGUUUAUCGAAUUUUCGGCGGACGCCUCCAAA	s⁻¹	<	1e-05
AUAAAUGCGCCAGAACUACAGAAAUGUAGUUGACGGGGAGGAGGUUUAUCGAAUUUUCGGCGGAUGCCUCCAAA	s⁻¹	<	1e-05
AUAAAAGCGCCAGACCUACAGAAAUGUAGUUGACGGGGAGGAGGUUUAUCGAAUUUUCGGCGGAUGCCUCCAAA	s⁻¹	<	1e-05
AUAAAAGCGCCAGAACUACAGAAAUGUAGUUGACGAGGAGGAGGUUUAUCGAAUUUUCGUCGGAUUCCUCCAAA	s⁻¹	<	1e-05
AUAAAGGCGCCAGAACUACAGAAAUGUAGUUGACGAGGAGGAGGUUUAUCGAAUUUUAGGCGGAUGCCUCCAAA	s⁻¹	<	1e-05
AUAAAAGCGCCAGAACUACAGAAAUGUAGUUGACAAGGAGGAGGUUUAUCGAAUUUUCGGCGGAUGCCUUCAAA	s⁻¹	<	1e-05
AUAAAAGCGCCAGAACUACAGAAAUGUAGUUAACGAGGAGGAGGUUUAUCGAAUUUUCGGCGGAUGCCUUCAAA	s⁻¹	=	0.000126
AUAAAGGCGCCAGAACUACAGAAAUGUAGUUGACGAGGAGGAGGUUUAUCGUAUUUUCGGCGGAUGCCUCCAAA	s⁻¹	<	1e-05
AUAAAAGCGCCUGAACUACAGAAAUGUAGUUGACGAGGAGGAGGUUUAUCGAAUAUUCGGCGGAUGCCUCCAAA	s⁻¹	=	0.00433
AUAAAAGCGCCAGAACUACAGAAAUGUAGUUGACGAGGAGGAGGUCUAUCGAAUUUUCGGCGGAUGGCUCCAAA	s⁻¹	=	6.94e-05
AUAAAAGCGCCAGAACUACAGAAAUGUAGUUGACAAGGAGAAGGUUUAUCGAAUUUUCGGCGGAUGCCUCCAAA	s⁻¹	<	1e-05
AUAAAAGCGCCAGAACUACAGAAAUGUAGUUGACGAGGAGGAGGUUUCUCGAAUUUUCGUCGGAUGCCUCCAAA	s⁻¹	<	1e-05
AUAAAAACGCCAGAACUACAGAAAUGUAGUUGACGAGGAGGAGGUUUAUCGAAUCUUCGGCGGAUGCCUCCAAA	s⁻¹	<	1e-05
